So I've got a bunch of molecules here, and I need their concentration at 0.5 h values.
# Experiment summary: Pharmacokinetics of ERL and GEF in Wistar rats after four weeks consumption of water or flavoured water (plasma, UPLC-MS/MS, non-compartmental analysis)
# Type: in vivo
# Settings: male, Wistar, rat, plasma, po, 20 mg/kg, rats, 20 mg/kg oral; drug alone (water); average; time 0.5 h; read-out: Conc*10 (ng/mL plasma)
Answers without a unit are incomplete; give the number and then its unit.

COc1cc2ncnc(Nc3ccc(F)c(Cl)c3)c2cc1OCCCN1CCOCC1 [GEF, Gefitinib]: 142 ng/mL

Shift focus to the following entry.
Reported concentration at 0.5 h of C#Cc1cccc(Nc2ncnc3cc(OCCOC)c(OCCOC)cc23)c1 [ERL, Erlotinib] : 44.5 ng/mL

###

# Experiment summary: Pharmacokinetics of ERL and GEF in Wistar rats after four weeks consumption of water or flavoured water (plasma, UPLC-MS/MS, non-compartmental analysis)
# Format: in vivo
# Settings: male, Wistar, rat, plasma, oral, 20 mg/kg, PKSolver sheet; dose 20 mg/kg; +Berry; time 1 h; read-out: Conc
Parameter measured: concentration at 1 h (ng/mL)
One number for each entry, in ng/mL.

COc1cc2ncnc(Nc3ccc(F)c(Cl)c3)c2cc1OCCCN1CCOCC1 [GEF, Gefitinib]: 152

Shift focus to the following entry.
Reported concentration at 1 h of C#Cc1cccc(Nc2ncnc3cc(OCCOC)c(OCCOC)cc23)c1 [ERL, Erlotinib] : 76.7

###

So I've got a bunch of molecules here, and I need their concentration at 2 h values.
# Experiment summary: Pharmacokinetics of ERL and GEF in Wistar rats after four weeks consumption of water or flavoured water (plasma, UPLC-MS/MS, non-compartmental analysis)
# Format: in vivo
# Settings: male, Wistar, rat, plasma, po, 20 mg/kg, rats, 20 mg/kg oral; +Lime FW; average; time 2 h; read-out: Conc*10 (ng/mL plasma)
# Description: Fifty healthy male Wistar rats weighing 250 ± 30 g were obtained from the animal house, College of Pharmacy, King Saud University, Riyadh, Saudi Arabia. Rats were randomly divided into ten cages (n = 5). […] Cmax and tmax were obtained from the corresponding plasma concentration–time curve (Figs. 1A and 1B). […] The area under the plasma concentration–time curve from time 0 to the last sampling time t, 48 h (AUC0–t) was calculated using the trapezoidal rule. […]
Numbers only, in ng/mL.

C#Cc1cccc(Nc2ncnc3cc(OCCOC)c(OCCOC)cc23)c1: 73.3

Shift focus to the following entry.
Reported concentration at 2 h of `COc1cc2ncnc(Nc3ccc(F)c(Cl)c3)c2cc1OCCCN1CCOCC1` : 574

###

# Experiment summary: Pharmacokinetics of ERL and GEF in Wistar rats after four weeks consumption of water or flavoured water (plasma, UPLC-MS/MS, non-compartmental analysis)
# Assay type: in vivo
# Settings: male, Wistar, rat, plasma, po, 20 mg/kg, rats, 20 mg/kg oral; +Lime FW; average; time 0.5 h; read-out: Conc*10 (ng/mL plasma)
Parameter measured: concentration at 0.5 h (ng/mL)
Give bare numbers, in ng/mL.

C#Cc1cccc(Nc2ncnc3cc(OCCOC)c(OCCOC)cc23)c1 [ERL, Erlotinib]: 164

Shift focus to the following entry.
Reported concentration at 0.5 h of COc1cc2ncnc(Nc3ccc(F)c(Cl)c3)c2cc1OCCCN1CCOCC1 [GEF, Gefitinib] : 387

###

So I've got a bunch of compounds here, and I need their AUC values.
# Experiment summary: Pharmacokinetics of ERL and GEF in Wistar rats after four weeks consumption of water or flavoured water (plasma, UPLC-MS/MS, non-compartmental analysis)
# Type: in vivo
# Settings: male, Wistar, rat, plasma, po, 20 mg/kg, raw data sheet, from average profile; +Pineapple FW
Numbers only, in ng·h/mL.

Lab note: each compound below needs its AUC filled in.
1. C#Cc1cccc(Nc2ncnc3cc(OCCOC)c(OCCOC)cc23)c1 [ERL, Erlotinib]
2. COc1cc2ncnc(Nc3ccc(F)c(Cl)c3)c2cc1OCCCN1CCOCC1 [GEF, Gefitinib]

OUTPUT:
[1670, 8170]

###

# Experiment summary: Pharmacokinetics of ERL and GEF in Wistar rats after four weeks consumption of water or flavoured water (plasma, UPLC-MS/MS, non-compartmental analysis)
# Format: in vivo
# Settings: male, Wistar, rat, plasma, po, 20 mg/kg, rats, 20 mg/kg oral; +Lime FW; average; time 3 h; read-out: Conc*10 (ng/mL plasma)
Parameter measured: concentration at 3 h (ng/mL)
Answers are plain numbers, in ng/mL.

C#Cc1cccc(Nc2ncnc3cc(OCCOC)c(OCCOC)cc23)c1: 57.6

Shift focus to the following entry.
Reported concentration at 3 h of `COc1cc2ncnc(Nc3ccc(F)c(Cl)c3)c2cc1OCCCN1CCOCC1` : 643

###

# Experiment summary: Pharmacokinetics of ERL and GEF in Wistar rats after four weeks consumption of water or flavoured water (plasma, UPLC-MS/MS, non-compartmental analysis)
# Type: in vivo
# Settings: male, Wistar, rat, plasma, po, 20 mg/kg, rats, 20 mg/kg oral; drug alone (water); average; time 3 h; read-out: Conc*10 (ng/mL plasma)
So I've got a bunch of compounds here, and I need their concentration at 3 h values.
Give bare numbers, in ng/mL.

COc1cc2ncnc(Nc3ccc(F)c(Cl)c3)c2cc1OCCCN1CCOCC1: 169

Shift focus to the following entry.
Reported concentration at 3 h of `C#Cc1cccc(Nc2ncnc3cc(OCCOC)c(OCCOC)cc23)c1` : 29.7

###

So I've got a bunch of compounds here, and I need their concentration at 24 h values.
# Experiment summary: Pharmacokinetics of ERL and GEF in Wistar rats after four weeks consumption of water or flavoured water (plasma, UPLC-MS/MS, non-compartmental analysis)
# Assay type: in vivo
# Settings: male, Wistar, rat, plasma, oral, 20 mg/kg, PKSolver sheet; dose 20 mg/kg; +Pineapple; time 24 h; read-out: Conc
# Method: Fifty healthy male Wistar rats weighing 250 ± 30 g were obtained from the animal house, College of Pharmacy, King Saud University, Riyadh, Saudi Arabia. Rats were randomly divided into ten cages (n = 5). […] Cmax and tmax were obtained from the corresponding plasma concentration–time curve (Figs. 1A and 1B). […] The area under the plasma concentration–time curve from time 0 to the last sampling time t, 48 h (AUC0–t) was calculated using the trapezoidal rule. […]
Answers are plain numbers, in ng/mL.

Lab note: each compound below needs its concentration at 24 h filled in.
1. COc1cc2ncnc(Nc3ccc(F)c(Cl)c3)c2cc1OCCCN1CCOCC1
2. C#Cc1cccc(Nc2ncnc3cc(OCCOC)c(OCCOC)cc23)c1

OUTPUT:
1. 152
2. 15.8

###

So I've got a bunch of molecules here, and I need their concentration at 24 h values.
# Experiment summary: Pharmacokinetics of ERL and GEF in Wistar rats after four weeks consumption of water or flavoured water (plasma, UPLC-MS/MS, non-compartmental analysis)
# Type: in vivo
# Settings: male, Wistar, rat, plasma, po, 20 mg/kg, rats, 20 mg/kg oral; +Peach FW; average; time 24 h; read-out: Conc*10 (ng/mL plasma)
One number for each entry, in ng/mL.

Lab note: each molecule below needs its concentration at 24 h filled in.
1. C#Cc1cccc(Nc2ncnc3cc(OCCOC)c(OCCOC)cc23)c1
2. COc1cc2ncnc(Nc3ccc(F)c(Cl)c3)c2cc1OCCCN1CCOCC1

OUTPUT:
[11.4, 85.3]

###

So I've got a bunch of molecules here, and I need their concentration at 48 h values.
# Experiment summary: Pharmacokinetics of ERL and GEF in Wistar rats after four weeks consumption of water or flavoured water (plasma, UPLC-MS/MS, non-compartmental analysis)
# Format: in vivo
# Settings: male, Wistar, rat, plasma, po, 20 mg/kg, rats, 20 mg/kg oral; drug alone (water); average; time 48 h; read-out: Conc*10 (ng/mL plasma)
Give bare numbers, in ng/mL.

C#Cc1cccc(Nc2ncnc3cc(OCCOC)c(OCCOC)cc23)c1 [ERL, Erlotinib]: 9.77

Reported concentration at 48 h of COc1cc2ncnc(Nc3ccc(F)c(Cl)c3)c2cc1OCCCN1CCOCC1 [GEF, Gefitinib] : 29.2

###

# Experiment summary: Pharmacokinetics of ERL and GEF in Wistar rats after four weeks consumption of water or flavoured water (plasma, UPLC-MS/MS, non-compartmental analysis)
# Type: in vivo
# Settings: male, Wistar, rat, plasma, po, 20 mg/kg, rats, 20 mg/kg oral; water (control); n = 5, mean (SD); read-out: AUC0-48
Parameter measured: AUC(0-t) (ng·h/mL)
Give bare numbers, in ng·h/mL.

Lab note: each molecule below needs its AUC(0-t) filled in.
1. C#Cc1cccc(Nc2ncnc3cc(OCCOC)c(OCCOC)cc23)c1
2. COc1cc2ncnc(Nc3ccc(F)c(Cl)c3)c2cc1OCCCN1CCOCC1

OUTPUT:
[827, 4310]

The measurements presented in this section are drawn from paper PMC7518156.
